From: patent US20250027130A1

# Test system: MaFRSA (N166A, V168A)
# ASSAY_METHOD_TEXT: RNAse A/LC-HRMS assay of Ma-tRNA^Pyl acylation by MaFRSA
# Format: biochemical, Methanomethylophilus alvus
# CONDITION_NOTES: RNAse A/LC-HRMS and intact tRNA analysis
MEASURED_ATTRIBUTE: Substrate activity for MaFRSA (in words)

# COMPOUND, OBSERVED_RESULT
records = [
    ("O=C(O)C(Cc1cccc(Br)c1)C(=O)O [Substrate 19]", "high activity"),
    ("Cc1cccc(CC(C(=O)O)C(=O)O)c1 [Substrate 17]", "high activity"),
]
